All values here come from patent US9113629B2.

System: TRZSS: wheat, including spring and winter (Triticum aestivum)
method summary: Post-emergent Test III, herbicidal activity in wheat and barley
Type: in vivo
run parameters: Triticum aestivum, post-emergence, 504 h; Table 9; 35 g ai/ha; post-emergent; 21 d; read-out: Visual Growth Reduction (%) 21 Days After Application TRZSS
property label: pest or weed control at 35 g/ha

Worked examples, 6 compounds total:
Nc1cc(-c2ccc(C(F)(F)F)c(F)c2F)nc(C(=O)O)c1Cl 75 to 84%
COc1c(N)nc(-c2ccc(C(F)(F)F)c(F)c2F)nc1C(=O)O 75 to 84%
C=Cc1c(C(=O)O)nc(-c2ccc(Br)cc2)c(F)c1N 0 to 29%
COC(=O)c1nc(-c2cc(F)c(Br)cc2F)c(F)c(N)c1Cl 85 to 94%
COC(=O)c1nc(-c2ccc(Br)cc2F)nc(N)c1OC 75 to 84%
C=Cc1c(C(=O)O)nc(-c2ccc(C#N)cc2)c(F)c1N 60 to 74%

// next item, pest or weed control at 35 g/ha requested
Inquiry: Returns the measured pest or weed control at 35 g/ha for the input compound. Input: COc1c(N)nc(-c2ccc(Br)cc2F)nc1C(=O)O
Reply text: 75 to 84%

====

Tested on: Key Broadleaf Weed and Crop Species
method summary: Post-emergent Test II herbicidal activity (Table 5)
Assay type: in vivo
run parameters: post-emergence, 336 h; VIOTR: wild pansy (Viola tricolor); application rate 70 g ai/ha; 14 days after application; read-out: Visual Growth Reduction (%) 14 Days After Application, VIOTR
property label: pest or weed control at 70 g/ha

Nc1c(F)c(-c2ccc(Br)c(F)c2F)nc(C(=O)O)c1Cl 95 to 100%
Nc1c(F)c(-c2ccc(OC(F)F)c(F)c2)nc(C(=O)O)c1Cl 0 to 29%
COc1c(N)nc(-c2ccc(Br)cc2)nc1C(=O)O 30 to 44%
COc1c(N)nc(-c2ccc(I)cc2)nc1C(=O)O 45 to 59%
COc1c(N)nc(-c2ccc(Br)cc2F)nc1C(=O)O 45 to 59%

Inquiry: What does the record list as pest or weed control at 70 g/ha for COC(=O)c1nc(-c2ccc(C(F)F)c(F)c2)cc(N)c1Cl ?
Reply text: 0 to 29%

Inquiry: Could you share which pest or weed control at 70 g/ha value was measured for Nc1cc(-c2ccc(I)c(F)c2F)nc(C(=O)O)c1Cl ?
Reply text: 95 to 100%

====

Test system: test plant species in Direct Seeded Rice
method summary: Postemergence herbicidal activity in direct seeded rice (Table 13)
Type: in vivo
run parameters: post-emergence, 504 h; ORYSS: Oryza sativa; 35 g ai/ha; read-out: Visual Growth Reduction (%) 21 Days After Application ORYSS
property label: pest or weed control at 35 g/ha

Inquiry: Reported pest or weed control at 35 g/ha, compound COC(=O)c1nc(-c2ccc(Br)cc2)c(Cl)c(N)c1Cl : ____
Reply text: 0 to 29%

Inquiry: What does the record list as pest or weed control at 35 g/ha for COc1c(N)nc(-c2cc(F)c(Br)cc2F)nc1C(=O)O ?
Reply text: 30 to 44%

Inquiry: Which value of pest or weed control at 35 g/ha has been reported for Nc1cc(-c2ccc(Br)cc2F)nc(C(=O)O)c1Cl in the records?
Reply text: 60 to 74%

Inquiry: Requested field: pest or weed control at 35 g/ha. Item: Nc1c(F)c(-c2ccc(Cl)c(F)c2)nc(C(=O)O)c1Cl
Reply text: 45 to 59%

Inquiry: Quick check: pest or weed control at 35 g/ha of COC(=O)c1nc(-c2ccc(C#N)c(F)c2)c(F)c(N)c1Cl ?
Reply text: 0 to 29%

Inquiry: Given the compound COC(=O)c1nc(-c2ccc(I)cc2)c(Cl)c(N)c1Cl , what is its reported pest or weed control at 35 g/ha?
Reply text: 0 to 29%

Inquiry: Looking for the measured pest or weed control at 35 g/ha of COC(=O)c1nc(-c2ccc(Br)c(F)c2F)nc(N)c1OC , can you help?
Reply text: 0 to 29%

====

System: PAPRH: common poppy (Papaver rhoeas)
method summary: Post-emergent Test III, herbicidal activity in wheat and barley
Assay type: in vivo
run parameters: probit analysis, dose for growth reduction of 80 percent, 21 days after application
property label: GR80 PAPRH

COC(=O)c1nc(-c2ccc(C#N)cc2)c(F)c(N)c1Cl 4 g ai/ha

Inquiry: Given Nc1c(F)c(-c2ccc(OC(F)F)cc2)nc(C(=O)O)c1Cl , state its recorded GR80 PAPRH.
Reply text: 8 g ai/ha

Inquiry: Name the reported GR80 PAPRH value associated with the compound Nc1cc(-c2ccc(Br)c(F)c2F)nc(C(=O)O)c1Cl
Reply text: 1 g ai/ha

Inquiry: Record request: GR80 PAPRH value, item COC(=O)c1nc(-c2ccc(Br)cc2)c(F)c(N)c1Cl
Reply text: 1 g ai/ha

Inquiry: Any idea what GR80 PAPRH was measured for N#Cc1ccc(-c2nc(C(=O)O)c(Cl)c(N)c2F)cc1 ?
Reply text: 0 g ai/ha

====

System: Key Broadleaf Weed and Crop Species
method summary: Post-emergent Test II herbicidal activity (Table 5)
Type: in vivo
run parameters: post-emergence, 336 h; ABUTH: velvetleaf (Abutilon theophrasti); application rate 70 g ai/ha; 14 days after application; read-out: Visual Growth Reduction (%) 14 Days After Application, ABUTH
property label: pest or weed control at 70 g/ha

Example entries and their recorded answers appear below.
molecule	pest or weed control at 70 g/ha
C#Cc1ccc(-c2nc(C(=O)O)c(Cl)c(N)c2F)c(F)c1 [Compound 108]	45 to 59%
Cc1ccc(-c2nc(C(=O)O)c(Cl)c(N)c2F)c(F)c1F [Compound 210]	85 to 94%
COC(=O)c1nc(-c2ccc(Cl)c(F)c2)c(F)c(N)c1Cl [Compound 216]	95 to 100%

Inquiry: Record COC(=O)c1nc(-c2ccc(I)cc2)nc(N)c1OC [Compound 18] : what is its pest or weed control at 70 g/ha with Key Broadleaf Weed and Crop Species?
Reply text: 75 to 84%

Inquiry: // fetch Key Broadleaf Weed and Crop Species pest or weed control at 70 g/ha for C#Cc1ccc(-c2nc(C(=O)OC)c(Cl)c(N)c2F)cc1F [Compound 133]
Reply text: 85 to 94%

Inquiry: Request body: readout pest or weed control at 70 g/ha, system Key Broadleaf Weed and Crop Species, query COC(=O)c1nc(-c2ccc(C(F)F)cc2)c(F)c(N)c1Cl [Compound 209] . Return the value.
Reply text: 95 to 100%

Inquiry: Query the reported pest or weed control at 70 g/ha for Key Broadleaf Weed and Crop Species; item: COC(=O)c1nc(-c2ccc(C(F)F)c(F)c2)cc(N)c1Cl [Compound 196]
Reply text: 95 to 100%

Inquiry: Checklist item: pest or weed control at 70 g/ha tested on Key Broadleaf Weed and Crop Species, entry COc1c(N)nc(-c2ccc(C(F)(F)F)c(F)c2)nc1C(=O)O [Compound 63] , value?
Reply text: 60 to 74%

Inquiry: Give the reported pest or weed control at 70 g/ha for C=Cc1c(C(=O)OC)nc(-c2ccc(Cl)c(F)c2)c(F)c1N [Compound 215] (system: Key Broadleaf Weed and Crop Species).
Reply text: 95 to 100%

====

Recorded pest or weed control at 140 g/ha, one value per entry.
Test system: Key Broadleaf Weed and Crop Species
method summary: Post-emergent Test II herbicidal activity (Table 5)
Format: in vivo
run parameters: post-emergence, 336 h; HELAN: sunflower (Helianthus annuus); 140 g ai/ha; post-emergent; 14 days after application; read-out: Visual Growth Reduction (%) 14 Days After Application HELAN
From the text: Post-emergent Test II: Seeds or nutlets of the desired test plant species were planted in Sun Gro Metro-Mix® 360 planting mixture, which typically has a pH of 6.0 to 6.8 and an organic matter content of about 30 percent, in plastic pots with a surface area of 64 square centimeters. When required to ensure good germination and healthy plants, a fungicide treatment and/or other chemical or physical treatment was applied. […]

Solved entries:
molecule	pest or weed control at 140 g/ha
C=Cc1c(N)nc(-c2ccc(C(F)(F)F)c(F)c2)nc1C(=O)O [Compound 32]	85 to 94%
COC(=O)c1nc(-c2cc(F)ccc2F)c(F)c(N)c1Cl [Compound 189]	85 to 94%
COC(=O)c1nc(-c2ccc(C#N)cc2)c(Cl)c(N)c1Cl [Compound 1]	95 to 100%
COC(=O)c1nc(-c2cc(F)c(Br)cc2F)c(F)c(N)c1Cl [Compound 51]	95 to 100%

Okay, next one:
Inquiry: Quick check: pest or weed control at 140 g/ha of C=Cc1c(N)nc(-c2ccc(F)c(F)c2F)nc1C(=O)O [Compound 191] ?
Reply text: 95 to 100%

====

# pest or weed control at 35 g/ha annotations
System: BROTE: downy brome (Bromus tectorum)
method summary: Post-emergent Test III, herbicidal activity in wheat and barley
Assay type: in vivo
run parameters: Bromus tectorum, post-emergence, 504 h; 35 g ai/ha; read-out: Visual Growth Reduction (%) 21 Days After Application BROTE
Method: Post-emergent Test III. […] A weighed amount, determined by the highest rate to be tested, of each test compound was placed in a 25 mL glass vial and was dissolved in 4 mL of a 97:3 v/v mixture of acetone and DMSO to obtain concentrated stock solutions. […]

compound	test target	pest or weed control at 35 g/ha
Nc1c(F)c(-c2ccc(I)cc2)nc(C(=O)O)c1Cl [Compound 45]	BROTE: downy brome (Bromus tectorum)	85 to 94%

Inquiry: Lab note: need pest or weed control at 35 g/ha for Nc1c(F)c(-c2ccc(Br)c(F)c2F)nc(C(=O)O)c1Cl [Compound 147] on BROTE: downy brome (Bromus tectorum), anyone have it?
Reply text: 75 to 84%
